These data points were gathered from patent US9957264B2.

Property: pIC50; scope: individual molecules
- measured-target: JAK1 (recombinant purified GST-tagged catalytic domain) (Homo sapiens (Human), UniProt P23458)
- Sequence (P23458 875-1153): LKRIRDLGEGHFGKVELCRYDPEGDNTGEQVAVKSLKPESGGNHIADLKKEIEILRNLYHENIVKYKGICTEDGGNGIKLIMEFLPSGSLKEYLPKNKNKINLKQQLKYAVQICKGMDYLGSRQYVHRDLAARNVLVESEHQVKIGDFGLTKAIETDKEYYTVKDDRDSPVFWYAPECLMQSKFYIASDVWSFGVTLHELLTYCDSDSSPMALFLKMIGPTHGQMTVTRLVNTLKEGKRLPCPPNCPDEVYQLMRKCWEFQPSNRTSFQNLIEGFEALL
- experiment-summary: Jak Biochemical HTRF Assay (JAK1)
- reported-conditions: [ATP] 31.8 μM
A value of pIC50 is the negative decimal logarithm of a concentration given in moles per litre.

// worked examples, pIC50 included
Cc1cc(Nc2nn([C@]3(CC#N)CC[C@@H](C(=O)OC(C)(C)C)OC3)c3cc[nH]c(=O)c23)ccc1C(=O)N1CCOC(C)C1 (single isomer, unassigned) [Example 20-11]	9.64
COC(=O)N1CCC(CC#N)(n2nc(Nc3ccc4c(c3)CCC4(O)C(F)(F)F)c3c(=O)[nH]ccc32)CC1 (single isomer, unassigned) [Example 5-143]	9.74
CN(C)S(=O)(=O)c1ccc(Nc2nn(C3(CC#N)CCN(Cc4cccc5[nH]ccc45)CC3)c3cc[nH]c(=O)c23)cc1	8.81
CN(C)S(=O)(=O)c1ccc(Nc2nn([C@]3(CC#N)CCCOC3)c3cc[nH]c(=O)c23)cc1	9.89

**Query** I am curious: what pIC50 value has been reported for Cc1cc(Nc2nn([C@]3(CC#N)CC[C@@H](C(=O)OC(C)(C)C)OC3)c3cc[nH]c(=O)c23)ccc1C(=O)N1CC(C)OC(C)C1 (single isomer, unassigned) [Example 20-13] ?
**Result** 9.66

**Query** Which pIC50 value belongs to CC(C)(C)NS(=O)(=O)c1ccc(Nc2nn(C3(CC#N)CCN(C(=O)C(C)(F)F)CC3)c3cc[nH]c(=O)c23)cc1 ?
**Result** 9.92

**Query** Which pIC50 value belongs to CC(O)(c1ccc(Nc2nn([C@]3(CC#N)CCCOC3)c3cc[nH]c(=O)c23)cc1)C(F)(F)F (single isomer, unassigned) [Example 5-111] ?
**Result** 10.05

**Query** I have this molecule here, CCNc1nn(C2(CC#N)CCN(C(=O)OC(C)(C)C)CC2)c2cc[nH]c(=O)c12 , and I need its recorded pIC50.
**Result** 7.32

**Query** Would you kindly share the measured pIC50 for Cc1cc(Nc2nn([C@]3(CC#N)CC[C@@H](C(=O)OC(C)(C)C)OC3)c3cc[nH]c(=O)c23)ccc1C(=O)N1C[C@@H]2C[C@H]1CO2 ?
**Result** 10.00

**Query** Please report the recorded pIC50 for CC(F)(F)C(=O)N1CCC(CC#N)(n2nc(Nc3ccc4c(c3)CN(C(C)(C)C)S4(=O)=O)c3c(=O)[nH]ccc32)CC1 .
**Result** 10.05

**Query** Endpoint output: pIC50 of CS(=O)(=O)c1ccc(Nc2nn(C3(CC#N)CCN(c4ccc(C#N)cn4)CC3)c3cc[nH]c(=O)c23)cc1 . Value?
**Result** 10.40

**Query** Given the entry CC(C)(C)S(=O)(=O)c1ccc(Nc2nn([C@]3(CC#N)CCOC3)c3cc[nH]c(=O)c23)cc1 (single isomer, unassigned) , report its measured pIC50.
**Result** 8.36

**Query** What pIC50 value was documented for this molecule, CC(c1ccc(Nc2nn([C@]3(CC#N)CC[C@@H](C(=O)OC(C)(C)C)OC3)c3cc[nH]c(=O)c23)cc1)N1CCCC1 (single isomer, unassigned) [Example 5-211] ?
**Result** 9.72

**Query** So what does the record say about pIC50 for CN(C)S(=O)(=O)c1ccc(Nc2nn(C3(CC#N)CCN(C(=O)CC4CC4)CC3)c3cc[nH]c(=O)c23)cc1 ?
**Result** 9.77

**Query** Item under review: CC(C)NC(c1ccc(Nc2nn([C@]3(CC#N)CC[C@@H](C(=O)OC(C)(C)C)OC3)c3cc[nH]c(=O)c23)cc1)C(F)(F)F (single isomer, unassigned) [Example 5-210] . Reported pIC50?
**Result** 9.39

**Query** pIC50 lookup needed for CC(C)(C)OC(=O)N1CCC(CC#N)(n2nc(Nc3cc(Cn4nccn4)cc(Cn4nccn4)c3)c3c(=O)[nH]ccc32)CC1 , thanks.
**Result** 8.68

**Query** Need pIC50, item CCNC(c1ccc(Nc2nn([C@]3(CC#N)CC[C@@H](C(=O)OC(C)(C)C)OC3)c3cc[nH]c(=O)c23)cc1)C(F)(F)F (single isomer, unassigned) [Example 5-207]
**Result** 9.72

**Query** Fill in the blank: the reported pIC50 of CC(C)CN1Cc2cc(Nc3nn(C4(CC#N)CCN(C(=O)OC(C)(C)C)CC4)c4cc[nH]c(=O)c34)ccc2S1(=O)=O is ____.
**Result** 9.33

**Query** Query: pIC50; subject: CC(C)NS(=O)(=O)c1ccc(Nc2nn(C3(CC#N)CCN(C(=O)OC(C)(C)C)CC3)c3cc[nH]c(=O)c23)cc1
**Result** 9.82
